Measured IC50 values are reported for all entries that follow.
# Test system: DU-145
# PROTOCOL TEXT: cells
# CONDITION SET: Homo sapiens, DU-145, 48 h
# Description: Cytotoxicity against human DU145 cells after 48 hrs by sulforhodamine B assay

Solved entries (count: 5):
# SMILES STR, IC50
measured = [
    ("COc1ccc(-c2ncc(C(=O)c3ccc(F)cc3)n2S(=O)(=O)c2ccccc2)cc1", "0.052 µM"),
    ("O=[N+]([O-])c1ccc(-c2nccn2S(=O)(=O)c2ccccc2)cc1", "> 10 µM"),
    ("COc1cc(-c2nc(C(=O)c3ccc(F)cc3)c[nH]2)cc(OC)c1OC", "> 10 µM"),
    ("O=C(c1cccc(F)c1)c1cnc(-c2ccccc2)n1S(=O)(=O)c1ccccc1", "> 10 µM"),
    ("COc1cccc(C(=O)c2c[nH]c(-c3ccccc3)n2)c1", "> 10 µM"),
]

# input Requested field: IC50. Item: COc1ccc(C(=O)n2ccnc2-c2ccccc2)cc1
# output > 10 µM

====

Recorded solubility thermodynamic at 24 h by entry
# PROTOCOL TEXT: Aqueous solubility of the compound in water after 24 hrs by shake-flask method
# Type: physicochemical
Reply with just the number (in µg/mL).

Worked examples follow.
# COMPOUND, MEASURED QUANTITY, UNIT OF MEASURE, VAL
measured = [
    ("CC(=O)O[C@H]1C(=O)[C@@]2(C)[C@H]([C@H](OC(=O)c3ccccc3)[C@]3(O)C[C@H](OC(=O)[C@H](O)[C@@H](NC(=O)c4ccccc4)c4ccccc4)C(C)=C1C3(C)C)[C@]1(OC(C)=O)CO[C@@H]1C[C@@H]2O [PACLITAXEL]", "solubility thermodynamic at 24 h", "µg/mL", 0.021),
    ("COc1cc(C(=O)c2c[nH]c(-c3ccc(N(C)C)cc3)n2)cc(OC)c1OC", "solubility thermodynamic at 24 h", "µg/mL", 11.3),
    ("COc1ccc(/C=C\\c2cc(OC)c(OC)c(OC)c2)cc1O [COMBRETASTATIN A4]", "solubility thermodynamic at 24 h", "µg/mL", 2.83),
]

# context switch: different compound, same solubility thermodynamic at 24 h
# input // returns reported solubility thermodynamic at 24 h for input COc1cc(C(=O)c2csc(-c3ccc(N(C)C)cc3)n2)cc(OC)c1OC
# output 0.833

====

# Test system: PC-3
# PROTOCOL TEXT: cells
# CONDITION SET: Homo sapiens, PC-3, 48 h
# Description: Cytotoxicity against human PC3 cells after 48 hrs by sulforhodamine B assay
MEASURED QUANTITY: IC50

// known answers, use as guide
# SMILES STR, IC50
data = [
    ("COc1cc(OC)cc(C(=O)c2c[nH]c(-c3ccccc3)n2)c1", "3.2 µM"),
    ("O=C(c1cccc(F)c1)c1c[nH]c(-c2ccccc2)n1", "> 10 µM"),
    ("O=C(c1cc(O)c(O)c(O)c1)c1c[nH]c(-c2ccc(Cl)cc2)n1", "10 µM"),
    ("COc1ccc(C(=O)c2c[nH]c(-c3ccccc3)n2)cc1", "> 10 µM"),
    ("COc1cc(C(=O)c2c[nH]c(-c3ccc(F)cc3)n2)cc(OC)c1OC", "0.169 µM"),
    ("O=C(c1cc(O)c(O)c(O)c1)c1c[nH]c(-c2ccc(O)c(O)c2)n1", "> 10 µM"),
    ("O=C(c1ccc(F)cc1)c1cnc(-c2ccccc2C(F)(F)F)n1S(=O)(=O)c1ccccc1", "> 10 µM"),
    ("Cc1cccc(C(=O)c2c[nH]c(-c3ccccc3)n2)c1", "> 10 µM"),
    ("COc1cc(C(=O)c2c[nH]c(-c3cc(OC)c(OC)c(OC)c3)n2)cc(OC)c1OC", "> 10 µM"),
    ("O=C(c1ccc(F)cc1)c1c[nH]c(-c2ccccc2)n1", "2.1 µM"),
]

# input Report IC50 for COc1cccc(C(=O)c2cnc(-c3ccccc3)n2S(=O)(=O)c2ccccc2)c1 please.
# output > 10 µM

# input Please do the same for O=C(c1ccc(F)cc1)c1cnc(-c2ccc(OCc3ccccc3)cc2)n1S(=O)(=O)c1ccccc1 as well.
# output 0.075 µM

# input Also, COc1cc(-c2ncc(C(=O)c3ccc(F)cc3)n2S(=O)(=O)c2ccccc2)cc(OC)c1OC please.
# output > 10 µM

# input How about this compound: COc1cc(-c2nc(C(=O)c3ccc(F)cc3)c[nH]2)cc(OC)c1OC
# output > 10 µM

# input Follow-up item: O=C(c1cc(O)c(O)c(O)c1)c1c[nH]c(-c2cc(O)c(O)c(O)c2)n1
# output > 10 µM

# input Same lookup for CN(C)c1ccc(-c2ncc(C(=O)c3ccc(F)cc3)n2S(=O)(=O)c2ccccc2)cc1 , please.
# output 0.083 µM

# input Same lookup for Cc1ccc(-c2nc(C(=O)c3ccc(F)cc3)c[nH]2)cc1 , please.
# output 0.065 µM

# input Param item: O=C(c1ccc(F)cc1)c1c[nH]c(-c2ccc(O)cc2)n1
# output > 10 µM

# input Same thing, different compound: COc1ccc(C(=O)n2ccnc2-c2ccccc2)cc1
# output > 10 µM

# input Same lookup for Cc1ccc(C(=O)c2cnc(-c3ccccc3)n2S(=O)(=O)c2ccccc2)cc1 , please.
# output > 10 µM

# input And the next one, COc1cc(C(=O)c2c[nH]c(-c3ccccc3)n2)cc(OC)c1OC ?
# output 0.29 µM

====

# System: DU-145
# PROTOCOL TEXT: cells
# CONDITION SET: Homo sapiens, DU-145, 48 h
IC50 by entry:

# SMILES STR, TARGET DESC, IC50
rows = [
    ("COc1ccc(C(=O)c2c[nH]c(-c3ccccc3)n2)cc1", "DU-145", "> 10 µM"),
    ("O=C(c1ccc(F)cc1)c1cnc(-c2ccccc2C(F)(F)F)n1S(=O)(=O)c1ccccc1", "DU-145", "> 10 µM"),
    ("COc1cc(C(=O)c2cnc(-c3ccccc3C(F)(F)F)n2S(=O)(=O)c2ccccc2)cc(OC)c1OC", "DU-145", "> 10 µM"),
    ("COc1cc(C(=O)n2ccnc2-c2ccccc2)cc(OC)c1OC", "DU-145", "> 10 µM"),
    ("COc1ccc(C(=O)c2c[nH]c(-c3ccccc3)n2)cc1OC", "DU-145", "> 10 µM"),
    ("O=S(=O)(c1ccccc1)n1ccnc1-c1ccccc1", "DU-145", "> 10 µM"),
    ("Cc1ccc(-c2nc(C(=O)c3ccc(F)cc3)c[nH]2)cc1", "DU-145", "0.078 µM"),
    ("COc1cc(C(=O)c2c[nH]c(-c3ccc(C(F)(F)F)cc3)n2)cc(OC)c1OC", "DU-145", "0.174 µM"),
    ("O=C(c1ccc(F)cc1)c1c[nH]c(-c2ccc(O)cc2)n1", "DU-145", "> 10 µM"),
    ("O=C(c1cc(O)c(O)c(O)c1)c1c[nH]c(-c2cc(O)c(O)c(O)c2)n1", "DU-145", "> 10 µM"),
]

# input What does the data say about its IC50? Entry: O=C(c1ccc(F)cc1)c1cnc(-c2ccc(Cl)cc2)n1S(=O)(=O)c1ccccc1
# output 0.064 µM

# input Proceed to O=S(=O)(c1ccccc1)n1ccnc1-c1ccc(OCc2ccccc2)cc1
# output > 10 µM

# input Try this compound next: COc1cc(C(=O)c2c[nH]c(-c3cc(OC)c(OC)c(OC)c3)n2)cc(OC)c1OC
# output > 10 µM

====

# System: LNCaP
# PROTOCOL TEXT: Cytotoxicity against human LNCAP cells after 48 hrs by sulforhodamine B assay
# Format: functional, cell-based
// reported pIC50 for each item listed
Scale note: pIC50 = -log10(concentration in M).

Please review the following examples before continuing.
# SMILES STR, pIC50
measured = [
    ("COc1cc(C(=O)c2cnc(-c3ccc(N(C)C)cc3)n2S(=O)(=O)c2ccccc2)cc(OC)c1OC", 7.21),
    ("COc1cc(C(=O)c2c[nH]c(-c3ccc(F)cc3)n2)cc(OC)c1OC", 7.01),
]

Turning to the following compound.
# input If you can, please state the reported pIC50 value of COc1cc(C(=O)c2c[nH]c(-c3ccc(C(F)(F)F)cc3)n2)cc(OC)c1OC .
# output 6.87
